// data source = ChEMBL document CHEMBL5058577

- Tested on: HEK-293T
- measurement description: Multiplex assay against HEK293T
- Assay type: toxicity, cell-based
- measurement setup: human, 48 h, 10 µM, compound concentration 10 uM, replicate 2
// NB: equality with 500 counts as False; only Total Cell Count strictly below is True

A selection of reference data follows.
molecule=COc1ccc2[nH]c(I)c(CCNC(C)=O)c2c1 target_entity=HEK-293T classification=False
molecule=CCc1nn2c(C)cc(C)nc2c1Cc1ccc(-c2nnc(C3CCNCC3)o2)cc1 target_entity=HEK-293T classification=False
molecule="Cc1ccc(OCC(O)C(C)NC(C)C)c2c1CCC2.Cl (stereo unspecified)" target_entity=HEK-293T classification=False
molecule="CN1C[C@H](C(=O)N[C@]2(C)O[C@@]3(O)[C@@H]4CCCN4C(=O)[C@H](Cc4ccccc4)N3C2=O)C[C@@H]2c3cccc4[nH]cc(c34)C[C@H]21.CS(=O)(=O)O [DIHYDROERGOTAMINE MESYLATE]" target_entity=HEK-293T classification=False
molecule="CCC(=O)OCC(=O)[C@@]1(OC(=O)CC)[C@@H](C)C[C@H]2[C@@H]3CCC4=CC(=O)C=C[C@]4(C)[C@@]3(Cl)[C@@H](O)C[C@@]21C [BECLOMETHASONE DIPROPIONATE]" target_entity=HEK-293T classification=True

Proceed to the following item.
Input line: Lab note: confirm whether the reported Total Cell Count for this molecule is below 500, equality not counting. molecule: `C[C@@H]1CC(=O)Nc2cccc(-c3ccc4c(c3)c(-c3cnn(C)c3)nn4C)c2N1`
Output line: False

###

- Test system: U2OS
- measurement description: Multiplex assay against U2OS
- Type: toxicity, cell-based
- measurement setup: human, 12 h, 10 µM, compound concentration 10 uM, replicate 1
This section presents compounds with their documented Population Hoechst High Intensity Objects (%) values.
State just the number; it will be interpreted in %.

Solved cases (3 shown):
structure_smiles=Nc1nc(CC(=O)Nc2ccc(CCNC[C@H](O)c3ccccc3)cc2)cs1 recorded_number=1
structure_smiles=COc1ccc2[nH]c(I)c(CCNC(C)=O)c2c1 recorded_number=3
structure_smiles=C[C@H](NC(=O)CNC(=O)c1cccc(Cl)c1)c1ccccc1 recorded_number=2

# evaluate next
Input line: Request the reported Population Hoechst High Intensity Objects (%) associated with `Cc1cc(-c2ccc3c(c2)CC[C@H]3N2CC3(CCN(C(=O)Cc4cn5cc(C)sc5n4)CC3)C2)ncn1`
Output line: 2

###

- System: HEK-293T
- measurement description: Multiplex assay against HEK293T
- Assay type: toxicity, cell-based
- measurement setup: human, 48 h, 10 µM, compound concentration 10 uM, replicate 1
Parameter Population Tubulin-Different-Phenotype (%): see the listing below.

compound=CC(C)(O)C(=O)N1CCN(c2ccc(C(F)(F)F)c(C3=C(c4c[nH]c5ccccc45)C(=O)NC3=O)c2)CC1 result=25%
compound=OCCCNc1cc(-c2ccnc(Nc3cccc(Cl)c3)n2)ccn1 result=76%
compound=O=c1ccc2ccc(OCCCCN3CCN(c4cccc5sccc45)CC3)cc2[nH]1 result=51%
compound=N[C@](CC1c2ccccc2Oc2ccccc21)(C(=O)O)[C@H]1C[C@@H]1C(=O)O result=8%

Okay, now this compound:
Input line: Consider the compound O=C(O)CCC/C=C\CC1C(O)CC(O)C1/C=C/C(O)COc1cccc(Cl)c1 (stereo not given) and give its measured Population Tubulin-Different-Phenotype (%).
Output line: 18%
